Reference source: patent US10669235B2

Test: Pharmacokinetic measurements in rats (i.v., i.t., oral)
Type: in vivo
Details: male, CD, rat, lung, iv; read-out: lung concentration (nM) at time 24 h
Where a name gives a salt, the structure may show the parent alone.
Consider the following molecules; for each one, report its concentration at 24 h.
Write down the numeric answer in nM and omit the unit.

For COC(=O)c1cc2c(cc1C)/C(=C(/Nc1ccc(C(=O)NCCN3CCNC(=O)C3)cc1)c1ccccc1)C(=O)N2 [Example 9] , what is its reported concentration at 24 h?
502

For COC(=O)c1cc2c(cc1C)/C(=C(/Nc1ccc(C(=O)NCC3CCN(C)CC3)cc1)c1ccccc1)C(=O)N2 [Example 3, formate] , what is its reported concentration at 24 h?
135

For COC(=O)c1cc2c(cc1C)/C(=C(/Nc1ccc(C(=O)NCCN3CCN(C)CC3)cc1)c1ccccc1)C(=O)N2 [Example 4] , what is its reported concentration at 24 h?
88

For COC(=O)c1ccc2c(c1)NC(=O)/C2=C(\Nc1ccc(N(C)C(=O)CN2CCN(C)CC2)cc1)c1ccccc1 [Nintedanib, reference compound] , what is its reported concentration at 24 h?
66

* * *

Test: Pharmacokinetic measurements in rats (i.v., i.t., oral)
Assay type: in vivo
Details: rat, i.t. dose 0.1 (nintedanib 0.42), 1.5 h
Assay Readout: lung/plasma conc ratio at time 1.5 h

For COC(=O)c1cc2c(cc1C)/C(=C(/Nc1ccc(C(=O)NCCN3CCNC(=O)C3)cc1)c1ccccc1)C(=O)N2 , what is its reported lung/plasma conc ratio at time 1.5 h?
>12197

For COC(=O)c1cc2c(cc1C)/C(=C(/Nc1ccc(C(=O)NCC(=O)N3CCN(CCO)CC3)cc1)c1ccccc1)C(=O)N2 , what is its reported lung/plasma conc ratio at time 1.5 h?
>265

For COC(=O)c1cc2c(cc1C)/C(=C(/Nc1ccc(C(=O)NCCN3CCC(N(C)C)CC3)cc1)c1ccccc1)C(=O)N2 , what is its reported lung/plasma conc ratio at time 1.5 h?
>4452

For COC(=O)c1cc2c(cc1C)/C(=C(/Nc1ccc(C(=O)NCCN3CCCN(C)CC3)cc1)c1ccccc1)C(=O)N2 , what is its reported lung/plasma conc ratio at time 1.5 h?
>2285

* * *

Test: PAMPA permeability assay
Assay type: in vitro ADME
Details: pH 7, PAMPA
Structures can show the parent of a compound that is named as a salt.
Simple rule here: recovery at 5 hr, 10 μM less than 80% is TRUE, otherwise FALSE.

Take the compound COC(=O)c1ccc2c(c1)NC(=O)/C2=C(\Nc1ccc(N(C)C(=O)CN2CCN(C)CC2)cc1)c1ccccc1 [Nintedanib, reference compound] and say whether its recovery at 5 hr, 10 μM is less than 80%.
FALSE

Take the compound COC(=O)c1cc2c(cc1C)/C(=C(/Nc1ccc(C(=O)NCC3CCN(C)CC3)cc1)c1ccccc1)C(=O)N2 [Example 3, formate] and say whether its recovery at 5 hr, 10 μM is less than 80%.
FALSE

Take the compound COC(=O)c1cc2c(cc1C)/C(=C(/Nc1ccc(C(=O)NCC(=O)N3CCN(C)CC3)cc1)c1ccccc1)C(=O)N2 [Example 8] and say whether its recovery at 5 hr, 10 μM is less than 80%.
FALSE

Take the compound COC(=O)c1cc2c(cc1C)/C(=C(/Nc1ccc(C(=O)NCCN3CCCN(C)CC3)cc1)c1ccccc1)C(=O)N2 [Example 5] and say whether its recovery at 5 hr, 10 μM is less than 80%.
TRUE

Take the compound COCCNC(=O)CN1CCN(C(=O)c2ccc(N/C(=C3\C(=O)Nc4cc(C(=O)OC)c(C)cc43)c3ccccc3)cc2)CC1 [Example 39] and say whether its recovery at 5 hr, 10 μM is less than 80%.
FALSE

Take the compound COC(=O)c1cc2c(cc1C)/C(=C(/Nc1ccc(C(=O)NCCCN(C)C)cc1)c1ccccc1)C(=O)N2 [Example 22] and say whether its recovery at 5 hr, 10 μM is less than 80%.
FALSE

Take the compound COC(=O)c1cc2c(cc1C)/C(=C(/Nc1ccc(C(=O)NCC(=O)N3CCN(CCO)CC3)cc1)c1ccccc1)C(=O)N2 [Example 7] and say whether its recovery at 5 hr, 10 μM is less than 80%.
TRUE

Take the compound COC(=O)c1cc2c(cc1C)/C(=C(/Nc1ccc(C(=O)N3CCC(C(=O)NCCN(C)C)CC3)cc1)c1ccccc1)C(=O)N2 [Example 31] and say whether its recovery at 5 hr, 10 μM is less than 80%.
TRUE

Take the compound COC(=O)c1cc2c(cc1C)/C(=C(/Nc1ccc(C(=O)NCC3(N(C)C)CCOCC3)cc1)c1ccccc1)C(=O)N2 [Example 36] and say whether its recovery at 5 hr, 10 μM is less than 80%.
TRUE

Take the compound COCCN1CCC(NC(=O)c2ccc(N/C(=C3\C(=O)Nc4cc(C(=O)OC)c(C)cc43)c3ccccc3)cc2)CC1 [Example 20] and say whether its recovery at 5 hr, 10 μM is less than 80%.
FALSE

Take the compound COC(=O)c1cc2c(cc1C)/C(=C(/Nc1ccc(C(=O)NC3CCN(CCO)CC3)cc1)c1ccccc1)C(=O)N2 [Example 13] and say whether its recovery at 5 hr, 10 μM is less than 80%.
TRUE

Take the compound COC(=O)c1cc2c(cc1C)/C(=C(/Nc1ccc(C(=O)N3CCC4(CC3)C(=O)NCCN4C)cc1)c1ccccc1)C(=O)N2 [Example 30] and say whether its recovery at 5 hr, 10 μM is less than 80%.
FALSE

Take the compound COC(=O)c1cc2c(cc1C)/C(=C(/Nc1ccc(C(=O)NCCN3CCN(C)CC3)cc1)c1ccccc1)C(=O)N2 [Example 4] and say whether its recovery at 5 hr, 10 μM is less than 80%.
TRUE

* * *

Consider the following compounds; for each one, report its BAL % administered dose at time 24 h.
Test: Pharmacokinetic measurements in rats (i.v., i.t., oral)
Format: in vivo
Details: rat, i.t. dose 0.1 (nintedanib 0.42), 24 h
Where a name gives a salt, the structure may show the parent alone.
Write down the numeric answer in % and omit the unit.

For COC(=O)c1cc2c(cc1C)/C(=C(/Nc1ccc(C(=O)NCCN3CCN(C)CC3)cc1)c1ccccc1)C(=O)N2 , what is its reported BAL % administered dose at time 24 h?
0.3

For COC(=O)c1ccc2c(c1)NC(=O)/C2=C(\Nc1ccc(N(C)C(=O)CN2CCN(C)CC2)cc1)c1ccccc1 [Nintedanib, reference compound] , what is its reported BAL % administered dose at time 24 h?
0.1

For COC(=O)c1cc2c(cc1C)/C(=C(/Nc1ccc(C(=O)NCCN3CCCN(C)CC3)cc1)c1ccccc1)C(=O)N2 , what is its reported BAL % administered dose at time 24 h?
0.2

For COC(=O)c1cc2c(cc1C)/C(=C(/Nc1ccc(C(=O)NCCN3CCNC(=O)C3)cc1)c1ccccc1)C(=O)N2 , what is its reported BAL % administered dose at time 24 h?
0.5

For COC(=O)c1cc2c(cc1C)/C(=C(/Nc1ccc(C(=O)NCC3CCN(C)CC3)cc1)c1ccccc1)C(=O)N2 [Example 3, formate] , what is its reported BAL % administered dose at time 24 h?
0.3

For COC(=O)c1cc2c(cc1C)/C(=C(/Nc1ccc(C(=O)NCCN3CCC(N(C)C)CC3)cc1)c1ccccc1)C(=O)N2 , what is its reported BAL % administered dose at time 24 h?
0.9

For COC(=O)c1cc2c(cc1C)/C(=C(/Nc1ccc(C(=O)NC3CCN(C)CC3)cc1)c1ccccc1)C(=O)N2 [Example 18, formate] , what is its reported BAL % administered dose at time 24 h?
0.3

* * *

System Under Test: PDGFRβ (Homo sapiens (Human), UniProt P09619)
Sequence (P09619 33-1106): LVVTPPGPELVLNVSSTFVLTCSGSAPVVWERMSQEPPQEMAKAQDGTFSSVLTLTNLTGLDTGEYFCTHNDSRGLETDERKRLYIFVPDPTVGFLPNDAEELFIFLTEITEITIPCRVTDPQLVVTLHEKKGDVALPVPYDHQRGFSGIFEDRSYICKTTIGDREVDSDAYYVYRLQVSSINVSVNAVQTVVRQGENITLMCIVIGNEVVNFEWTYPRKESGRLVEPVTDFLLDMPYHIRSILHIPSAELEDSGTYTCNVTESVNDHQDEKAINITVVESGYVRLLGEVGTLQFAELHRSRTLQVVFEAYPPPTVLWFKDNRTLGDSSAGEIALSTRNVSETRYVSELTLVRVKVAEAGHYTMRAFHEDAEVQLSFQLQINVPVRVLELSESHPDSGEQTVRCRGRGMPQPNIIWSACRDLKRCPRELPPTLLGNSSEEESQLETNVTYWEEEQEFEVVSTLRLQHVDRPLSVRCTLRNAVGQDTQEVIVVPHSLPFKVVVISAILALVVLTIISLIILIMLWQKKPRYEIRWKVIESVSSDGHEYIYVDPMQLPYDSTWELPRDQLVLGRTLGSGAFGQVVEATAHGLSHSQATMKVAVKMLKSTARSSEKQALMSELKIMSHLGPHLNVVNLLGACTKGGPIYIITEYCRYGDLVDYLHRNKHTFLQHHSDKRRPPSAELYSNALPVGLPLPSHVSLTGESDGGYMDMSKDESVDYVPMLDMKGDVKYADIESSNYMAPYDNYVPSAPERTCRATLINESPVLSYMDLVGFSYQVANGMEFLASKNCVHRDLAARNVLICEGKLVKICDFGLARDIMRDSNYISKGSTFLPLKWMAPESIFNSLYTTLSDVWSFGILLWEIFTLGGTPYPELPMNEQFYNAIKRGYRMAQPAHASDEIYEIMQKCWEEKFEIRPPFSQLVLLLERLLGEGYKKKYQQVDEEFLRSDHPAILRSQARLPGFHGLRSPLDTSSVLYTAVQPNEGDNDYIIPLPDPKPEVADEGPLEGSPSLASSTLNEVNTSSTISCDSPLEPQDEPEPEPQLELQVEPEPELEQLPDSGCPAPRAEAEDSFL
Test: PDGFRβ enzyme inhibition (ADP-Glo assay)
Assay type: biochemical
Details: mean, n = 2 (nintedanib n = 34)
Where a name gives a salt, the structure may show the parent alone.
Assay Readout: Ki (nM)
Write down the numeric answer in nM and omit the unit.

For COC(=O)c1cc2c(cc1C)/C(=C(/Nc1ccc(C(=O)NCCCN(C)C)cc1)c1ccccc1)C(=O)N2 , what is its reported Ki?
9.29

For COC(=O)c1cc2c(cc1C)/C(=C(/Nc1ccc(S(=O)(=O)NCCN(C)C)cc1)c1ccccc1)C(=O)N2 [Example 25, formate] , what is its reported Ki?
11.7

For COC(=O)c1cc2c(cc1C)/C(=C(/Nc1ccc(C(=O)NCCN3CCC(F)(F)CC3)cc1)c1ccccc1)C(=O)N2 , what is its reported Ki?
84.6

For COC(=O)c1cc2c(cc1C)/C(=C(/Nc1ccc(C(=O)N3CCC4(CC3)C(=O)NCCCN4C)cc1)c1ccccc1)C(=O)N2 , what is its reported Ki?
25.2

* * *

Test: Pharmacokinetic measurements in rats (i.v., i.t., oral)
Assay type: in vivo
Details: male, CD, rat, lung/plasma, other: intra-tracheal; read-out: lung/plasma conc ratio at time 24 h
Where a name gives a salt, the structure may show the parent alone.
Assay Readout: Kp at 24 h

For COC(=O)c1cc2c(cc1C)/C(=C(/Nc1ccc(C(=O)NCC3CCN(C)CC3)cc1)c1ccccc1)C(=O)N2 [Example 3, formate] , what is its reported Kp at 24 h?
> 1000
